Data origin: PubChem BioAssay (NCI)

System: OVCAR-5 ovarian
Experiment: NCI-60 one-dose screen, 48 h
Conditions: 10 µM unless noted
This is part of a sample that, as a whole, favours compounds with a hit. Of some 83,000 tested, about 20% had one in any assay. Active and inactive are the calls of the source. How the source made its calls: active means growth percent below 10; inactive means the rest.
Bench note: report the call from active, inactive

Illustrative cases are given below, each with its answer.
Problem: Kindly provide the recorded test outcome for the following molecule: CCN(C(=O)N1CCN(c2cc3c(cc2F)c(=O)c(C(=O)O)cn3C2CC2)CC1)c1nc(-c2ccccc2)cs1
Result: inactive

Problem: What classification did Nc1ncnc2c1C(c1ccc([N+](=O)[O-])cc1)c1sc3c(F)cccc3c1O2 (configuration not stated) end up with in this test?
Result: inactive

Problem: Hi, sorry to bother you, what did the test record for C/C=C(\C)C(=O)N[C@H]1CC[C@]2(C)C3CC[C@@]4(C)C(CC[C@@H]4C(C)N(C)C)C3CCC2[C@H]1OC(C)=O (some centres not stated) ?
Result: inactive

***
Problem: Please share the test call associated with Cc1ccc(S(=O)(=O)OC[C@@]2(C)CC[C@]3(C)CC[C@]4(C)C(=C3C2)C=C[C@@H]2[C@@]3(C)CCCNC(C)(C)[C@@H]3CC[C@]24C)cc1 .
Result: inactive

Problem: Name the outcome recorded for CCC(=O)Oc1cc(Cl)c(Cl)cc1Cl in the assay.
Result: inactive

Problem: What is the recorded call for this molecule in the test? CCCCC1COc2cccc3c2N1C=C/C3=C\C(=O)N(C)c1cccc(Cl)c1 (configuration not stated)
Result: inactive

Problem: Each molecule tested received a call. Report the one for Cn1ccnc1CN1CCSC(C(=O)Nc2ccccc2)C1 (configuration not stated) .
Result: inactive

Problem: Per the records of this test, what outcome belongs to O=C1/C(=C/c2ccc(-c3ccccc3C(F)(F)F)o2)SC(=S)N1CCc1ccc(O)cc1 ?
Result: inactive

Problem: Call for entry Fc1ccc(NC(c2ccc(F)cc2)C2CCN(CCCCc3ccccc3)CC2)cc1 (configuration not stated) :
Result: inactive

Problem: Which outcome was entered for the molecule O=S(=O)(O)c1ccc(N=Nc2ccc(N=Nc3cccc4ccccc34)c(S(=O)(=O)O)c2)cc1 in this test?
Result: inactive

Problem: Which outcome did this test record for the molecule COC(=O)[C@H]1Cc2c([nH]c3ccccc23)[C@@H](c2cccs2)N1 ?
Result: inactive

Problem: Record lookup: outcome of this test for CCCCCCCCCCCCCCCCCCn1cc(COc2ccc(C=O)cc2)nn1 ?
Result: inactive

Problem: // return assay outcome for COc1cc2c(cc1OCCCOC1=C=C=C(c3ccc4c(c3)c3cc(-c5ccc(OCCCOc6cc7c(cc6OC)C(=O)N6CCC[C@H]6C=N7)cc5)ccc3n4S(=O)(=O)c3ccc(C)cc3)C=C1)N=C[C@@H]1CCCN1C2=O
Result: inactive

Problem: For COc1cc2nc3cc([N+](=O)[O-])ccc3c(NCCNCC(C)(C)O)c2cc1OC , which call appears in the assay record?
Result: active

Problem: Per the assay record, what outcome was assigned to N#CSc1c[nH]c2ccc(/C=C/C(=O)/C=C(/C=C/c3ccc4[nH]cc(SC#N)c4c3)OB(F)F)cc12 ?
Result: inactive

Problem: Status in this test for COc1ccc(CN2CCc3c(Cl)nc(N)nc3C2=O)c(OC)c1 ?
Result: inactive

Problem: Tell me the assay call for COc1cc(-c2[nH]ncc2Nc2ccc(Cl)cc2)cc(OC)c1OC please.
Result: inactive

Problem: Any idea what this test logged for Cn1cc(C2=C(c3cccc4ccccc34)C(=O)NC2=O)c2cc(Br)ccc21 ?
Result: inactive

Problem: Just curious, what result did OCCN1CCN(c2cc(-c3cccc(OC(F)(F)F)c3)nc3ccc(N4CCCC4)cc23)CC1 get here?
Result: inactive

Problem: # outcome recorded in this test, key = COc1ccc(/C=C2/C(=O)N=C3N2NC(c2ccccc2)=CN3c2ccccc2)cc1
Result: inactive

Problem: Short answer needed: outcome of this test for O=C(CC1(O)C(=O)Nc2ccc(Br)cc21)c1ccc(Cl)cc1 (configuration not stated) ?
Result: inactive

Problem: Recorded call for CC1=C2[C@@H](CC1)[C@]1(C)O[C@@](C(C)C)(C[C@H]1OC(=O)CO)[C@H]2OC(=O)C1CC1c1ccccc1 (some centres not stated) ?
Result: inactive
